These entries and their values trace back to the supplement of paper PMC9233669.

# System: biotinyl-Phe-oxazolone
# measurement_description: self-aminoacylation, catalytic enhancement (BFO) (fold over background); higher = more active; k-Seq, kA / k0A0; sequences stand for … in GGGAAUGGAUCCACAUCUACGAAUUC…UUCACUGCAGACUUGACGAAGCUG
Fewer inactive variants are shown than the library holds.
Parameter class (string): assigned from measured self-aminoacylation. Ranges: low bracket: < 7; middle bracket: ≥ 7 and < 20; high bracket: ≥ 20

Prompt line: Where would AUUAAGCUGGUCAUCGAGUGA [Fam2.1 aminoacylation ribozyme variant] land among the classes by reported self-aminoacylation?
Response line: low bracket

Prompt line: CCACACUUCAAGAAAUCAGUC [Fam1B.1 aminoacylation ribozyme variant] , same question.
Response line: low bracket

Prompt line: And what about the sequence AUCCACCUAGAUCAUCGGGUG [Fam2.2 aminoacylation ribozyme variant] ?
Response line: high bracket

Prompt line: Let us now turn to ACACACUUCAAGCAAGCGGUC [Fam1B.1 aminoacylation ribozyme variant]
Response line: low bracket

Prompt line: Try AUUCAUCUAGGCCAUCGGGUG [Fam2.2 aminoacylation ribozyme variant] next.
Response line: middle bracket

Prompt line: Repeat with AUUUCCCUGGUCCUCGAGUGA [Fam2.1 aminoacylation ribozyme variant]
Response line: high bracket

Prompt line: Also need CCACACUGCAAGCAAUCGGUG [Fam1B.1 aminoacylation ribozyme variant] , thanks.
Response line: high bracket

Prompt line: Same thing, different sequence: AUUACCCUGGUCAUCGCAUGA [Fam2.1 aminoacylation ribozyme variant]
Response line: middle bracket

Prompt line: Follow-up entry: CCACACUUCAAGCAAUCGCGC [Fam1B.1 aminoacylation ribozyme variant]
Response line: low bracket

Prompt line: Same question for CUGCUUCAAAAAAUCGGUCUG [Fam1A.1 aminoacylation ribozyme variant] please.
Response line: middle bracket

Prompt line: Also AUCUACCUAGGUCAUCGGGUG [Fam2.2 aminoacylation ribozyme variant] ?
Response line: high bracket

Prompt line: Same thing, different sequence: AUUACCCUGGUCAACGAGUAA [Fam2.1 aminoacylation ribozyme variant]
Response line: low bracket

Prompt line: Also, AUUCACAAAGGUCAUCGGGUG [Fam2.2 aminoacylation ribozyme variant] please.
Response line: high bracket

Prompt line: Same for AUUCACCUAGGUCAUCCGGUA [Fam2.2 aminoacylation ribozyme variant]
Response line: low bracket
